Test: chemical genetic growth profiling, strain panel (AID 1159580);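 further: tested at 20 µM; growth read once vehicle control cultures reached saturation at 30 °C; 1 = growth at the plate median or of vehicle wells; lower values mean less growth of the strain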
Details: S. cerevisiae deletion strains, growth OD, locus YGL078C, strain dbp3, active compounds read low
Hit rate of the full screen: of about 5,500 compounds, about 2,000 (36%) were called active. Another 18% or so got no clear call; they are omitted. The list shows a part of the results.
normalized growth values for the compounds below.
Reported endpoint: normalized growth

compound=COc1cc(O)c2c(=O)cc(-c3ccc(OC)c(-c4c(O)cc(O)c5c(=O)cc(-c6ccc(O)cc6)oc45)c3)oc2c1 reported_endpoint="normalized growth" reported_value=0.987
compound="CSCCC(N)C(=O)NC(CC(C)C)C(=O)NC(Cc1ccccc1)C(=O)O (stereo not given)" reported_endpoint="normalized growth" reported_value=0.987
compound="CC12CCC3C(CCC4(O)CC(O)CCC34/C=N/NC(N)=O)C1(O)CCC2C1=CC(=O)OC1 (stereo not given)" reported_endpoint="normalized growth" reported_value=0.983
compound="CC(=O)OC1CC[C@@]2(C)C(CCC3C2CC[C@]2(C)C(C4=CC(=O)OC4)C(OC(C)=O)CC32O)C1 (stereo not given in full)" reported_endpoint="normalized growth" reported_value=1
compound=CCCc1nn(C)c2c(=O)[nH]c(-c3cc(S(=O)(=O)N4CCN(C)CC4)ccc3OCC)nc12 reported_endpoint="normalized growth" reported_value=0.985
